# Tested on: ATP;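 also: ATP exposure 15 min at 22 °C before imaging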
# Protocol Text: switch fluorescence ratio, 500 uM ATP over buffer (Cy3 cluster intensity, sum of 5 cycles each) (fold (ratio)); higher = stronger signal-on switching upon ATP binding; sequences stand for … in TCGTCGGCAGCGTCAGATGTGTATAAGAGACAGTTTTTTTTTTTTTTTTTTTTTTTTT…TC
# Particulars: aptamer strand: ATP DNA aptamer (quencher-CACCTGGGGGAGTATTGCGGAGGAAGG + anchor), 100 nM annealed; ATP concentration: 500 uM
Could you please report measured switch fluorescence ratio for the items listed next?
API doc: respond with a numeric literal and nothing else, no unit.

Find the recorded switch fluorescence ratio belonging to `GGGGTGTGCG` and report it. 0.988

# iterate: `AAAATATGCC` 1.02

# iterate: `GTAAGATATT` 0.999

# iterate: `ATATCCGGTT` 1

# iterate: `GGGAGTAGGT` 1.01

# iterate: `GTAATTTATG` 1.01

# iterate: `AGCCGAGTGC` 1.02

# iterate: `TAGGCGCTAG` 0.999

# iterate: `AGAGTGATGC` 1

# iterate: `GGTGGAAGGG` 0.975

# iterate: `GTTTGAAGCG` 1
